Values from PubChem BioAssay

Assay: plasmodial surface anion channel blockers, osmotic lysis – cell-based, P. falciparum Indochina, OD700, 1 h, primary screen (AID 1154)
Settings: P. falciparum Indochina infected RBC osmotic lysis, higher = more signal, called active from +8 up or from −8 down
Please mark Condition met if the recorded z-score is equal to or greater than 2, and Condition not met if it falls below.

COMPOUND	CATEGORY
C/C=C/[C@@H](CCn1cc([C@H](O)c2ccccc2)nn1)[Si](C)(C)c1ccc(OC)cc1	Condition met

Inquiry: Does the reported z-score for C=CCC(OC(C)=O)[C@@H]1[C@@H](N(Cc2ccc(-c3cccc(C(F)(F)F)c3)o2)C(=O)c2cccc3ccccc23)c2cc(OCCCO)ccc2N1C(=O)c1ccc(-c2ccccc2)cc1 (stereo not given in full) fall at or above the 2 mark?
Reply text: Condition not met

Inquiry: Does the reported z-score for O=[N+]([O-])c1ccc(C[n+]2ccc(-c3ccc(CO)cc3)cc2)o1 fall at or above the 2 mark?
Reply text: Condition not met

###

Target: Concanavalin-A (Canavalia ensiformis) (UniProt P02866)
Sequence (P02866 whole entry, looked up): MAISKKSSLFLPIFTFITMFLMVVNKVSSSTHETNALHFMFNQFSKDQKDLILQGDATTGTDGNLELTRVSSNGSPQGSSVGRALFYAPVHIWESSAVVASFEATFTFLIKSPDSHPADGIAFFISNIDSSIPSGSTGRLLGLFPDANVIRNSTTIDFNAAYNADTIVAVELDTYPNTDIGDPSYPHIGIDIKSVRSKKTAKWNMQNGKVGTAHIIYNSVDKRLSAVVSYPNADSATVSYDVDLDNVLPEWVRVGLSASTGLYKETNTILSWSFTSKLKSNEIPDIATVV
Assay: compounds binding concanavalin A lectin – biochemical, small-molecule microarray, Alexa647 label, 635 nm, artefact control for SMM control protein annotation, primary screen (AID 1127)
Details: ConA-A647 binding fluorescence, higher = more signal
Binned composite z-score; ranges: LOW: < 0.7; MEDIUM: ≥ 0.7 and < 1; HIGH: ≥ 1

COMPOUND	CATEGORY
O=C1C2C=CC(C(O)c3cccc4ccccc34)N(Nc3ccccc3)C2C(=O)N1c1ccccc1 (stereo not given)	MEDIUM
O=C1O[C@H](c2ccccc2)[C@H](c2ccccc2)N2[C@H]1[C@@H](C(=O)N1CCN(c3ncccn3)CC1)[C@]1(C(=O)Nc3ccc(C#CCCO)cc31)[C@H]2c1ccccc1OCCO	HIGH
COc1cc(C(O)C2C=CC3C(=O)NC(=O)C3N2Nc2ccc(Cl)cc2Cl)cc(OC)c1OC (stereo not given)	HIGH
C[C@]12C(=O)N(CCCO)[C@@H]3C(=O)N(c4ccc(Cl)cc4)CC=CC31O[C@@H]1/C=C\CCCOC(=O)C12 (stereo not given in full)	LOW
COCC(=C=CC[C@@H](O)c1ccccc1OCCO)C[C@@H](O)COCc1ccccc1	LOW
CCCc1cc2c(n1Cc1ccc(OC)cc1)C(C)C1CN(C(=O)c3ccccc3)C(C)(C(=O)OC)C21 (stereo not given)	HIGH
COC(=O)C(CC#Cc1ccc2c(c1)[C@]1(C(=O)N2)[C@H](c2ccccc2OCCO)N2[C@H](c3ccccc3)[C@H](c3ccccc3)OC(=O)[C@H]2[C@@H]1C(=O)Nc1nc2ccccc2s1)C(=O)OC	HIGH
OCCCC1=CC(c2cccs2)N(Cc2cccc(OC(F)(F)F)c2)CC1 (stereo not given)	LOW

Inquiry: Note: place this compound into its band. Item: C[N+](C)(C)CCCCCCNC(=O)[C@@H]1C[C@@H]2C(=O)NCC(=O)N2[C@@H]1c1ccc(O)cc1
Reply text: MEDIUM

Inquiry: Note: place this compound into its band. Item: O=C1C2C=CC(C(O)c3ccc(Br)cc3)N(Nc3ccccc3)C2C(=O)N1c1ccccc1 (stereo not given)
Reply text: MEDIUM

Inquiry: Note: place this compound into its band. Item: COC(=O)C(CC#Cc1ccc2c(c1)[C@]1(C(=O)N2)[C@H](C(=O)N2CCc3cc(OC)c(OC)cc3C2)[C@H]2C(=O)O[C@H](c3ccccc3)[C@H](c3ccccc3)N2[C@@H]1c1ccc(OCCO)cc1)C(=O)OC
Reply text: MEDIUM

Inquiry: Note: place this compound into its band. Item: CCCNC(=O)[C@@H]1c2ccccc2C(=O)N(CC23CC4CC(CC(C4)C2)C3)[C@H]1c1ccc(CO)cc1
Reply text: HIGH

Inquiry: Note: place this compound into its band. Item: CC(=O)NCCCC[C@@H]1NC(=O)[C@H]2C[C@@H](C(=O)NCCCCCN)[C@@H](c3cccc(OCCO)c3)N2C1=O
Reply text: HIGH
